- Assay notes: soluble on expression in E. coli; label from the status in PepcDB or PDB records
Assay endpoint: soluble on expression in E. coli

Example entries and their recorded answers appear below.
{"columns": ["Sequence data", "soluble on expression in E. coli"],
 "data": [
  ["MSPGSVVVTGANRGIGLGLVQQLVKDKNIRHIIATARDVEKATELKSIKDSRVHVLPLTVTCDKSLDTFVSKVGEIVGSDGLSLLINNAGVLLSYGTNTEPNRAVIAEQLDVNTTSVVLLTQKLLPLLKNAASKESGDQLSVSRAAVITISSGLGSITDNTSGSAQFPVLAYRMSKAAINMFGRTLAVDLKDDNVLVVNFCPGWVQTNLGGKNAALTVEQSTAELISSFNKLDNSHNGRFFMRNLKPYEF", "soluble"],
  ["MSKKIVLALGGNALGDDLAGQMKAVKITSQAIVDLIAQGHEVIVTHGNGPQVGMINQAFEAAAKTEAHSPMLPMSVCVALSQGYIGYDLQNALREELLSRGINKPVATLVTQVEVDANDPAFLNPTKPIGSFFTEQEAEQLTKQGYTLKEDAGRGYRRVVASPKPVDIIEKETVKALVDAGQVVITVGGGGIPVIREGNHLRGASAVIDKDWASARLAEMIDADMLIILTAVEKVAINFGKENEQWLDRLSLSDAERFIEEGHFAKGSMLPKVEAAASFARSRAGREALITVLSKAKEGIEGKTGTVICQ", "not soluble"],
  ["MRVISGEYGGRRLKALDGDNTRPTTDKVKESIFNMIGPYFDGGMALDLYSGSGGLAIEAVSRGMDKSICIEKNFAALKVIKENIAITKEPEKFEVRKMDANRALEQFYEEKLQFDLVLLDPPYAKQEIVSQLEKMLERQLLTNEAVIVCETDKTVKLPETIGTLKKTRETVYGITQVTIYRQEA", "soluble"],
  ["MKAFDIMKASQIACCFEVGSFKPGNVHKNRDYDDIKYHHFISSGIAFGDVIHQACLEKNNIGNFIKKGVIESKKWSPTNANLGIIMLHMPIAIAASNLDKFSESALKKETEKIIKNTTVQDAIDVYRAIEIALAFVNAPENGPDLKSKDAKDELIEKNLTLYDVFKISSTWDSISNEWTENFKISYKGYNLIKEYYEKYNNINIAVTKTFINLLSNYPDTLIARKKGIDVSKMVSEKAKEVLNNFNEESVLEFDKFLSKEGNKLNPGTTADLIASSLLIFLLDRISNEKTILY", "not soluble"]
]}

Problem: soluble on expression in E. coli for `MSLHAVDHHAILARFAPSRGGDGNIFRDIDPSRLAHIVVDMQNGFMEEGAPVEVPVARTIVDNINRISAAVRDAGGHNVFLRYTTPPEGGPSWSNFMVRMGREAQGHREAFTPGAHHWQLWPTLDVREADAIVDKHRFSGFTPGTCALKDVLDARGIDTVLITGTLTNCCCESTARDAMQHNYRVLMASDANAALSDEEHAATLHIMAMVFADLHSTQEVVDLLGSEGHHHHHH` ?
Result: soluble

Problem: // query: `MGSDKIHHHHHHMRIAIDPFMHRHLSLEELPRKVRELGYDWIEMSPRADFLEWFKAPRVFPQRMKEFKKALAAENVKIASLLPMYRWASNDETERKAAVKHWKRAIEIAVEMEIDTMNSEFGRGPHPDKGSCYCCHTGSMIEACEDAWWRSMEELVPVFERENIQLNIEPHPEDWCETLQPALDIIRTVNSKNVKFLYCAPHTFYFGDDTKAMLREAKDVLAHVHVGDTFNHKASSGLRYILNPPGTQARVHQHLNIGQGEVPWDDFFGTLAEIGFDGTMTACVFAWEDRADHSGKFMLSEMNRYIEKYWPK`
Result: not soluble

Data origin: the DeepSol protein solubility set
